Examples of compounds with documented combination Emax follow.
test system: Caov-4 (Ovarian Carcinoma); assay: combination Emax (second highest fraction inhibited in the dose matrix, 72 h); higher = more inhibition; extreme values may be limits of the assay
Please respond with just the number, no unit label.

Recorded combination Emax (compound COc1cccc(OCCCN)c1-c1cc(Nc2cnc(C#N)cn2)n[nH]1 [Prexasertib] + Cc1cc2ncnn2cc1Nc1ncc2c(n1)n(C1CCOCC1)c(=O)n2C [AZD7648] (first compound max 1 µM, 7x7, partner max 10 µM) ): 0.959

***
Value of measured combination Emax for the entry O=C(c1cc(Cc2n[nH]c(=O)c3ccccc23)ccc1F)N1CCN(C(=O)C2CC2)CC1 [Olaparib] + CN(CC[C@H](CSC1=CC=CC=C1)NC2=C(C=C(C=C2)S(=O)(=O)NC(=O)C3=CC=C(C=C3)N4CCC(CC4)[C@H](C5=CC=CC=C5C6=CC=C(C=C6)Cl)O)S(=O)(=O)C(F)(F)F)CCO [AZD4320] (first compound max 10 µM, 7x7, partner max 1 µM) : 0.181

combination Emax reading for CN(CCO)CC[C@H](CSc1ccccc1)Nc1ccc(S(=O)(=O)NC(=O)c2ccc(N3CCC([C@@H](O)c4ccccc4-c4ccc(Cl)cc4)CC3)cc2)cc1S(=O)(=O)C(F)(F)F [AZD4320] + CC(=O)O[C@H]1C(=O)[C@@]2(C)[C@H]([C@H](OC(=O)c3ccccc3)[C@]3(O)C[C@H](OC(=O)[C@H](O)[C@@H](NC(=O)c4ccccc4)c4ccccc4)C(C)=C1C3(C)C)[C@]1(OC(C)=O)CO[C@@H]1C[C@@H]2O [Paclitaxel] (first compound max 1 µM, 7x7, partner max 3 µM) : 0.795
